experiment: Microsomal stability assay, mouse liver microsomes; type: in vitro ADME; settings: 10 μM
value-type: Mics (m) comp remaining 60 min (%)
API: value field is a number in %; no unit string.

Req: Given the entry Nc1nc(-c2cccc3c2CCCC3)c2ccn([C@@H]3O[C@H](COP(=O)(O)CP(=O)(O)O)[C@@H](O)[C@H]3O)c2n1 [11C.12] , report its measured Mics (m) comp remaining 60 min.
Resp: 100

Req: And what about the molecule `O=P(O)(O)CP(=O)(O)OC[C@H]1O[C@@H](n2ccc3c(-c4cccc5ccoc45)ncnc32)[C@H](O)[C@@H]1O` ?
Resp: 102

Req: And what about the molecule `O=P(O)(O)CP(=O)(O)OC[C@H]1O[C@@H](n2ccc3c(-c4ccc5cc(OCc6ccccc6)ccc5c4)nc(Cl)nc32)[C@H](O)[C@@H]1O` ?
Resp: 134

---

Measured half-life by item
assay: In vivo pharmacokinetic study, intravenous; set-up: species or system male CD-1 mice; settings: male, CD-1, mouse, plasma, iv, 1 mg/kg, footnote: t1/2 stability in plasma; text: half-life in mouse PK, intravenous
API: value field is a number in h; no unit string.

O=P(O)(O)CP(=O)(O)OC[C@H]1O[C@@H](n2ccc3c(-c4cccc5c4CCCC5)ncnc32)[C@H](O)[C@@H]1O
2.17
O=P(O)(O)CP(=O)(O)OC[C@H]1O[C@@H](n2ccc3c(-c4ccc5c(c4)CCCC5)nc(Cl)nc32)[C@H](O)[C@@H]1O
2.23
O=P(O)(O)CP(=O)(O)OC[C@H]1O[C@@H](n2ccc3c(-c4ccc5cc(Cl)ccc5c4)nc(Cl)nc32)[C@H](O)[C@@H]1O
2.43

Req: Given the entry `O=P(O)(O)CP(=O)(O)OC[C@H]1O[C@@H](n2ccc3c(-c4cc(Br)c5ccccc5c4F)nc(Cl)nc32)[C@H](O)[C@@H]1O` , report its measured half-life.
Resp: 1.67

Req: And what about the compound `O=P(O)(O)CP(=O)(O)OC[C@H]1O[C@@H](n2ccc3c(-c4ccco4)nc(Cl)nc32)[C@H](O)[C@@H]1O` ?
Resp: 0.105

Req: And what about the compound O=P(O)(O)CP(=O)(O)OC[C@H]1O[C@@H](n2ccc3c(-c4cccc5ccccc45)ncnc32)[C@@H](F)[C@@H]1O [34A.6] ?
Resp: 1.3

Req: And what about the compound Cc1nc(-c2ccc3ccccc3c2)c2ccn([C@@H]3O[C@H](COP(=O)(O)CP(=O)(O)O)[C@@H](O)[C@H]3O)c2n1 [18E.7] ?
Resp: 1.73

Req: And what about the compound `O=P(O)(O)CP(=O)(O)OC[C@H]1O[C@@H](n2ccc3c(-c4cccc5c4CCCC5)nc(Cl)nc32)[C@H](O)[C@@H]1O` ?
Resp: 2.33

Req: And what about the compound O=P(O)(O)CP(=O)(O)OC[C@H]1O[C@@H](n2ccc3c(-c4ccc5ccccc5c4)ncnc32)[C@@H](F)[C@@H]1O [34A.7] ?
Resp: 3.13

Req: And what about the compound O=P(O)(O)CP(=O)(O)OC[C@H]1O[C@@H](n2ccc3c(-c4ccc5c(c4)CCCC5)nc(I)nc32)[C@H](O)[C@@H]1O [27H.23] ?
Resp: 3.08

Req: And what about the compound `COC(=O)c1ccc2cc(-c3nc(Cl)nc4c3ccn4[C@@H]3O[C@H](COP(=O)(O)CP(=O)(O)O)[C@@H](O)[C@H]3O)ccc2c1` ?
Resp: 0.138

Req: And what about the compound Cc1nc(-c2cc3ccccc3o2)c2ccn([C@@H]3O[C@H](COP(=O)(O)CP(=O)(O)O)[C@@H](O)[C@H]3O)c2n1 [18E.8] ?
Resp: 0.25

Req: And what about the compound O=P(O)(O)CP(=O)(O)OC[C@H]1O[C@@H](n2ccc3c(-c4ccnc5ccccc45)ncnc32)[C@@H](F)[C@@H]1O [34A.28] ?
Resp: 1.32
